- ASSAY TARGET: RORγt (Homo sapiens, UniProt P51449)
- Sequence (P51449 269-508 limits assumed): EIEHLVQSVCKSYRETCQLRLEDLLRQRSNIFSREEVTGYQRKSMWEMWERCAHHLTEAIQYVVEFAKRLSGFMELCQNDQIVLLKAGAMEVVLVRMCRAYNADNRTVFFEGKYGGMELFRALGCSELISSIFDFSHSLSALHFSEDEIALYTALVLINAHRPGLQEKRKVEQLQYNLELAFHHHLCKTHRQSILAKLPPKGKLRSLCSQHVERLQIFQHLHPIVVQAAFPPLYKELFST
- EXPERIMENT: Indigo Biosciences Human RAR-related Orphan Receptor, Gamma Reporter Assay (in vitro inhibition of RORγt)
- ASSAY SETUP: RORγt reporter cells, luciferase readout, 22-24 h incubation; read-out: IC50 range
pIC50: −log10 of the molar value.
PROPERTY: pIC50

Please give the measured pIC50 for this compound: [2H]C([2H])(CC(C)(C)O)n1ncc(-c2onc(-c3c(F)cccc3Cl)c2-c2ncccn2)c1C(F)(F)F [Example 3]
7.00 to 8.00

Please give the measured pIC50 for this compound: [2H][C@]1(n2ncc(-c3onc(-c4c(F)cccc4Cl)c3-c3ncccn3)c2C(F)(F)F)C[C@](C)(O)C1 [Example 2-1]
6.00 to 7.00

Please give the measured pIC50 for this compound: [2H][C@]1(n2ncc(-c3onc(-c4c(F)cccc4Cl)c3-c3ncccn3)c2C(F)F)C[C@@](C)(O)C1 [4-2/1]
7.00 to 8.00

Please give the measured pIC50 for this compound: [2H]C([2H])(CC(C)(C)O)n1ncc(-c2onc(-c3c(F)cccc3Cl)c2-c2ncccn2)c1C1CC1 [10/3]
6.00 to 7.00
